Test system: LNCaP tumor xenograft-bearing CB17-SCID mice
assay-name: Biodistribution in LNCaP tumor xenograft-bearing CB17-SCID mice
experimental-setup: 24 h p.i.
measurement-name: Biodistribution Lung (% ID/g)

compound="CCCCCC[C@H](NC(=O)[C@H](CCC(=O)O)NC(=O)N[C@@H](CCC(=O)N[C@H](CCCNC(=O)CCC(=O)NCCCC[C@@H](NC(=O)[C@@H](CNC(=O)c1ccc([Si](F)(C(C)(C)C)C(C)(C)C)cc1)NC(=O)CN1CCN(CC(=O)[O-])CCN(CC(=O)[O-])CCN(CC(=O)[O-])CC1)C(=O)O)C(=O)O)C(=O)O)C(=O)O.[177Lu+3] [[^177Lu]Lu-7, [^177Lu]Lu-Proinhibitor III]" assayed_system="LNCaP tumor xenograft-bearing CB17-SCID mice" measurement_name="Biodistribution Lung" test_value=0.04
compound="CSCC[C@H](NC(=O)CC[C@H](NC(=O)N[C@@H](CCC(=O)N[C@H](CCCNC(=O)CCC(=O)NCCCC[C@@H](NC(=O)[C@@H](CNC(=O)c1ccc([Si](F)(C(C)(C)C)C(C)(C)C)cc1)NC(=O)CN1CCN(CC(=O)[O-])CCN(CC(=O)[O-])CCN(CC(=O)[O-])CC1)C(=O)O)C(=O)O)C(=O)O)C(=O)O)C(=O)O.[177Lu+3] [[^177Lu]Lu-5, [^177Lu]Lu-Proinhibitor I]" assayed_system="LNCaP tumor xenograft-bearing CB17-SCID mice" measurement_name="Biodistribution Lung" test_value=0.33
compound="CC(C)(C)[Si](F)(c1ccc(C(=O)NCC(NC(=O)CN2CCN(CC(=O)[O-])CCN(CC(=O)[O-])CCN(CC(=O)[O-])CC2)C(=O)NC(CCCCNC(=O)CCC(=O)NCCCC(NC(=O)CCC(NC(=O)NC(CCc2nnn[nH]2)C(=O)O)C(=O)O)C(=O)O)C(=O)O)cc1)C(C)(C)C.[177Lu+3] (stereo not shown) [[^177Lu]Lu-11, [^177Lu]Lu-Tetrazole Derivative 11]" assayed_system="LNCaP tumor xenograft-bearing CB17-SCID mice" measurement_name="Biodistribution Lung" test_value=0.05
compound="CC(C)(C)[Si](F)(c1ccc(C(=O)NC[C@@H](NC(=O)CN2CCN(CC(=O)[O-])CCN(CC(=O)[O-])CCN(CC(=O)[O-])CC2)C(=O)N[C@H](CCCCNC(=O)CCC(=O)NCCC[C@@H](NC(=O)CC[C@H](NC(=O)O[C@@H](CCC(=O)O)C(=O)O)C(=O)O)C(=O)O)C(=O)O)cc1)C(C)(C)C.[177Lu+3] [[^177Lu]Lu-3, [^177Lu]Lu-Carbamate I]" assayed_system="LNCaP tumor xenograft-bearing CB17-SCID mice" measurement_name="Biodistribution Lung" test_value=0.03
